# target_or_system: Mt-KasA (Mycobacterium tuberculosis, UniProt P9WQD9)
# Construct: made in house
# Sequence (P9WQD9 1-416): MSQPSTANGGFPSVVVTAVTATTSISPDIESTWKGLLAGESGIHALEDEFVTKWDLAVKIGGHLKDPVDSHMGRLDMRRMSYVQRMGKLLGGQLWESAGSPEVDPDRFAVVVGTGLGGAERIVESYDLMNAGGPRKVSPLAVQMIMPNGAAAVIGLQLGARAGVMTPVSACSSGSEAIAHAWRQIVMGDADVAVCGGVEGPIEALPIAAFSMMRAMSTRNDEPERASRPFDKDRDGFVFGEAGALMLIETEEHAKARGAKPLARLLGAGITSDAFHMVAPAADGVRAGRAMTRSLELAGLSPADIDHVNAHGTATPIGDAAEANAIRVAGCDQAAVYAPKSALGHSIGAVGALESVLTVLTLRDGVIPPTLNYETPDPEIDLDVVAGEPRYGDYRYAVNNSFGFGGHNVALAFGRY
# test_protocol: biochemical
property: IC50
Note: state the figure and append the unit.

Specify IC50 for CC12C[C@@]34C=CC(=O)[C@@](C)(CCC(=O)Nc5c(O)ccc(C(=O)O)c5O)C3[C@H](CC1C4)O2 (stereo partly shown) and stop.
4.53 µM

----------
# target_or_system: Mt-KasA (Mycobacterium tuberculosis, UniProt P9WQD9)
# Construct: made in house
# test_protocol: biochemical
# condition_info: standard error in brackets
property: IC50 (µM)
Quick reminder: number only, in µM, skip the unit.

Specify IC50 for CC12C[C@@]34C=CC(=O)[C@@](C)(CCC(=O)Nc5c(O)ccc(C(=O)O)c5O)C3[C@H](CC1C4)O2 (stereo partly shown) [platensimycin] and stop.
4.53

----------
# target_or_system: Mt-KasB (Mycobacterium tuberculosis, UniProt P9WQD7)
# Construct: made in house
# Sequence (P9WQD7 1-417): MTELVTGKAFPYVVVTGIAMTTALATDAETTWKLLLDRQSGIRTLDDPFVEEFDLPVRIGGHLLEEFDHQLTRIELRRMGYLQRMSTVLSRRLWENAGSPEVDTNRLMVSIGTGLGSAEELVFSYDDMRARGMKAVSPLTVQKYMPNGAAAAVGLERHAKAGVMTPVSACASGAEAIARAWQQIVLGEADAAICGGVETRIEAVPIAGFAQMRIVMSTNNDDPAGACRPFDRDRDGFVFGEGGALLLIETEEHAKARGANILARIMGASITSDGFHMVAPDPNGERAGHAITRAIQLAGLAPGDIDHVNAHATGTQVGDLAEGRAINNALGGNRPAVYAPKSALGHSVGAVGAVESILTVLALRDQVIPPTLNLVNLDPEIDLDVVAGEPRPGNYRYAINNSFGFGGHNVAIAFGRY
# test_protocol: biochemical
# condition_info: standard error in brackets
property: IC50 (µM)
Quick reminder: number only, in µM, skip the unit.

Specify IC50 for CC12C[C@@]34C=CC(=O)[C@@](C)(CCC(=O)Nc5c(O)ccc(C(=O)O)c5O)C3[C@H](CC1C4)O2 (stereo partly shown) and stop.
9.51

----------
# target_or_system: Mt-FabH (Mycobacterium tuberculosis)
# Sequence (P9WNG3 1-335): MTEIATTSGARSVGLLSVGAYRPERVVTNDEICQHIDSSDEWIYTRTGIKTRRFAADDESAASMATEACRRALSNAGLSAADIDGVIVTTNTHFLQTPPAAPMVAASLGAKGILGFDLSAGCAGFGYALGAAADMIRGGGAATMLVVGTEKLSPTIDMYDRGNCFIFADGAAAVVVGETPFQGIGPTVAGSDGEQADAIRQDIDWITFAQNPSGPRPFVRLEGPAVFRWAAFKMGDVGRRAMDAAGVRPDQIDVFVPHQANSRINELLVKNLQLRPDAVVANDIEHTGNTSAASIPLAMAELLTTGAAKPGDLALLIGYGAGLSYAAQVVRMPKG
property: IC50

Specify IC50 for CC12C[C@@]34C=CC(=O)[C@@](C)(CCC(=O)Nc5c(O)ccc(C(=O)O)c5O)C3[C@H](CC1C4)O2 (stereo partly shown) [platensimycin] and stop.
> 340 µM
